- MEASURED_TARGET: α2β2γ1 GABAA receptor subtype (Homo sapiens (Human), UniProt P47869+Q8N1C3)
- ASSAY_PROCEDURE: Two-electrode voltage clamp electrophysiology in Xenopus oocytes expressing GABAA receptors (modulation of GABA EC20 current)
- Type: cell-based
- ASSAY_CONDITIONS: Xenopus oocytes expressing α2β2γ1; compound at approx. 30-fold its Ki α2β2γ1; GABA EC20 current
ASSAY_READOUT: Fold increase h-GABA-A α2β2γ1 oocyte @ 30-fold Ki
One number for each entry.

Some solved cases for reference:
{"columns": ["COMPOUND_STRING", "READING"],
 "data": [
  ["C[C@@H]1N=C(c2c(F)cccc2F)c2c(ccc(Cl)c2Cl)-n2nc(C(=O)N3CC(CF)C3)nc21", 1.44],
  ["CO[C@H]1CCN(C(=O)c2nc3n(n2)-c2ccc(Cl)c(Cl)c2C(c2c(F)cccc2F)=N[C@H]3C)C1", 1.41],
  ["C[C@@H]1N=C(c2c(F)cccc2F)c2c(ccc(C(F)(F)F)c2Cl)-n2c1nc1c2CCC1", 1.41]
]}

# evaluate next
Q. For α2β2γ1 GABAA receptor subtype (Homo sapiens (Human), UniProt P47869+Q8N1C3), provide Fold increase h-GABA-A α2β2γ1 oocyte @ 30-fold Ki of Cc1c(C(=O)NCCO)nc2n1-c1ccc(C(F)(F)F)c(Cl)c1C(c1ncccc1F)=N[C@H]2C please.
A. 2.91

###

- MEASURED_TARGET: human GABAA α1β3γ2 receptor (Homo sapiens (Human), UniProt P14867+P18507)
- ASSAY_PROCEDURE: Radioligand binding assay for γ2-containing GABAA subtypes, [3H]Flumazenil competition (α1β3γ2)
- ASSAY_CONDITIONS: Ki α1β3γ2 (nM)/Ki α2β2γ1 (nM)
Field: γ2/γ1 Selectivity Ratio. Provide a value for each of the compounds that follow.
One number for each entry.

Provide γ2/γ1 Selectivity Ratio values for the following items, in order.
1. CCOC1CN(C(=O)c2cn3c(n2)[C@H](C)N=C(c2ncccc2F)c2c-3ccc(C(F)(F)F)c2Cl)C1
2. C[C@@H]1N=C(c2ncccc2F)c2c(ccc(C(F)(F)F)c2Cl)-n2cc(C(=O)N3CC(F)C3)nc21
3. C[C@@H]1N=C(c2ncccc2F)c2c(ccc(Cl)c2Cl)-n2nc(C(=O)N3CCC3)nc21
4. COC1CN(C(=O)c2nc3n(n2)-c2ccc(Cl)c(Cl)c2C(c2ncccc2F)=NC3)C1

A.
318.9
412.4
52.5
85.7

Provide γ2/γ1 Selectivity Ratio values for the following items, in order.
1. C[C@@H]1N=C(c2ncccc2F)c2c(ccc(C(F)(F)F)c2Cl)-n2nc(C(=O)N3CC4(CCCO4)C3)nc21
2. COC1CN(C(=O)c2nc3n(n2)-c2ccc(Cl)c(Cl)c2C(c2ncccc2F)=N[C@H]3C)C1
3. C[C@@H]1N=C(c2ncccc2F)c2c(ccc(Cl)c2Cl)-n2nc(C(=O)N3CC4(CCOCC4)C3)nc21
4. C[C@@H]1N=C(c2c(F)cccc2F)c2c(ccc(C(F)(F)F)c2Cl)-n2nc(NC(=O)N3CCS(=O)(=O)CC3)nc21
5. C[C@@H]1N=C(c2c(F)cccc2F)c2c(ccc(Cl)c2Cl)-n2nc(C(=O)N3CC(C(F)F)C3)nc21

A.
604.3
77.8
198.4
176.5
53.4

Provide γ2/γ1 Selectivity Ratio values for the following items, in order.
1. C[C@@H]1N=C(c2c(F)cccc2F)c2c(ccc(C(F)(F)F)c2Cl)-n2nc(C(=O)NCCF)nc21
2. C[C@@H]1N=C(c2c(F)cccc2F)c2c(ccc(Cl)c2Cl)-n2nc(C(=O)N3CCS(=O)(=O)CC3)nc21
3. C[C@@H]1N=C(c2c(F)cccc2F)c2c(ccc(Cl)c2Cl)-n2nc(C(=O)N3CCC3)nc21
4. C[C@@H]1N=C(c2c(F)cccc2F)c2c(ccc(Cl)c2Cl)-n2nc(OC3COC3)nc21
5. OCc1cn2c(n1)CN=C(c1c(F)cccc1F)c1c-2ccc(Br)c1Cl
6. COC1CN(C(=O)c2cn3c(n2)CN=C(c2ccccc2F)c2c-3ccc(Cl)c2Cl)C1

A.
185.1
224.7
108.2
73.0
24.4
25.5

Provide γ2/γ1 Selectivity Ratio values for the following items, in order.
1. O=C(NC1COC1)c1nc2n(n1)-c1ccc(Cl)c(Cl)c1C(c1c(F)cccc1F)=NC2
2. C[C@@H]1N=C(c2c(F)cccc2F)c2c(ccc(C(F)(F)F)c2Cl)-n2nc(C(=O)N3CC(O)C3)nc21
3. C[C@@H]1N=C(c2c(F)cccc2F)c2c(ccc(Cl)c2Cl)-n2nc(C3CC3)nc21
4. C[C@@H]1N=C(c2ncccc2F)c2c(ccc(C(F)(F)F)c2Cl)-n2cc(C(=O)N[C@H]3C[C@H](O)C3)nc21
5. Cc1nc2n(n1)-c1ccc(Cl)c(Cl)c1C(c1c(F)cccc1F)=NC2
6. C[C@@H]1N=C(c2ncccc2F)c2c(ccc(C(F)(F)F)c2Cl)-n2nc(C(=O)N3CC4(CCO4)C3)nc21

A.
145.5
156.8
39.5
179.6
67.1
156.1

Provide γ2/γ1 Selectivity Ratio values for the following items, in order.
1. C[C@@H]1N=C(c2c(F)cccc2F)c2c(ccc(Cl)c2Cl)-n2nc(N3CCCC3=O)nc21
2. C[C@@H]1N=C(c2c(F)cccc2F)c2c(ccc(Cl)c2Cl)-n2nc(S(N)(=O)=O)nc21
3. O=C(c1nc2n(n1)-c1ccc(Cl)c(Cl)c1C(c1c(F)cccc1F)=NC2)N1CC(O)C1
4. C[C@@H]1N=C(c2c(F)cccc2F)c2c(ccc(C(F)(F)F)c2Cl)-n2ccnc21

A.
[83.5, 60.1, 86.7, 103.2]

Provide γ2/γ1 Selectivity Ratio values for the following items, in order.
1. CC1CN(C(=O)c2nc3n(n2)-c2ccc(C(F)(F)F)c(Cl)c2C(c2ncccc2F)=N[C@H]3C)C1
2. C[C@@H]1N=C(c2c(F)cccc2F)c2c(ccc(Cl)c2Cl)-n2nc(C(=O)N3CC(CF)C3)nc21

A.
1. 592.7
2. 100.6

###

- MEASURED_TARGET: human GABAA α2β2γ1 receptor (Homo sapiens (Human), UniProt P47869+Q8N1C3)
- ASSAY_PROCEDURE: Radioligand binding assay for γ1-containing GABAA subtypes, [3H]RO7239181 competition (α2β2γ1)
- ASSAY_CONDITIONS: Ki h-GABAA α2β2γ1, [3H]RO7239181 competition binding, human GABAA α2β2γ1
ASSAY_READOUT: pKi
One number for each entry, as −log10 of the molar value.

Some solved cases for reference:
{"columns": ["COMPOUND_STRING", "pKi"],
 "data": [
  ["COC1CN(C(=O)c2nc3n(n2)-c2ccc(C(F)(F)F)c(Cl)c2C(c2ncccc2F)=N[C@H]3C)C1", 7.60],
  ["C[C@@H]1N=C(c2c(F)cccc2F)c2c(ccc(Cl)c2Cl)-n2nc(S(N)(=O)=O)nc21", 7.72],
  ["C[C@@H]1N=C(c2c(F)cccc2F)c2c(ccc(Cl)c2Cl)-n2nc(C(=O)N3CC(C(F)F)C3)nc21", 7.86]
]}

Provide pKi values for the following items, in order.
1. COC1CN(C(=O)c2cn3c(n2)CN=C(c2ccccc2F)c2c-3ccc(Cl)c2Cl)C1
2. C[C@@H]1N=C(c2c(F)cccc2F)c2c(ccc(Cl)c2Cl)-n2nc(C(=O)NCCF)nc21
3. Cc1nc2n(n1)-c1ccc(Cl)c(Cl)c1C(c1c(F)cccc1F)=NC2

A.
1. 7.60
2. 8.14
3. 8.62

###

- MEASURED_TARGET: α2β2γ1 GABAA receptor subtype (Homo sapiens (Human), UniProt P47869+Q8N1C3)
- ASSAY_PROCEDURE: Two-electrode voltage clamp electrophysiology in Xenopus oocytes expressing GABAA receptors (modulation of GABA EC20 current)
- Assay type: cell-based
- ASSAY_CONDITIONS: Xenopus oocytes expressing α2β2γ1; compound at approx. 30-fold its Ki α2β2γ1; GABA EC20 current
Binary call on Fold increase h-GABA-A α2β2γ1 oocyte @ 30-fold Ki: Met from 2 upward, Not met beneath that.

Consider the following illustrative entries.
{"columns": ["COMPOUND_STRING", "LABEL_CLASS"],
 "data": [
  ["CNS(=O)(=O)c1nc2n(n1)-c1ccc(Cl)c(Cl)c1C(c1c(F)cccc1F)=N[C@H]2C", "Not met"],
  ["C[C@H](O)CNC(=O)c1nc2n(n1)-c1ccc(C(F)(F)F)c(Cl)c1C(c1c(F)cccc1F)=N[C@H]2C", "Met"],
  ["CCOC1CN(C(=O)c2cn3c(n2)[C@H](C)N=C(c2ncccc2F)c2c-3ccc(C(F)(F)F)c2Cl)C1", "Met"],
  ["C[C@@H]1N=C(c2c(F)cccc2F)c2c(ccc(Cl)c2Cl)-n2nc(S(C)(=O)=O)nc21", "Not met"],
  ["CO[C@H]1CCN(C(=O)c2nc3n(n2)-c2ccc(Cl)c(Cl)c2C(c2ncccc2F)=N[C@H]3C)C1", "Met"],
  ["COCc1nc2n(n1)-c1ccc(Cl)c(Cl)c1C(c1c(F)cccc1F)=N[C@H]2C", "Not met"],
  ["C[C@@H]1N=C(c2ncccc2F)c2c(ccc(Cl)c2Cl)-n2nc(C(=O)N3CC(O)C3)nc21", "Met"],
  ["C[C@@H]1N=C(c2c(F)cccc2F)c2c(ccc(C(F)(F)F)c2Cl)-n2cc(CO)nc21", "Not met"]
]}

Q. In plain terms: is recorded Fold increase h-GABA-A α2β2γ1 oocyte @ 30-fold Ki at least 2 for C[C@@H]1N=C(c2ncccc2F)c2c(ccc(C(F)(F)F)c2Cl)-n2nc(C(=O)N3CC4(CCO4)C3)nc21 ?
A. Met
